# experimental_target: Cyclooxygenase-1 (Mus musculus, UniProt P22437)
# Construct: endogenous in cells
# Sequence (P22437 27-602): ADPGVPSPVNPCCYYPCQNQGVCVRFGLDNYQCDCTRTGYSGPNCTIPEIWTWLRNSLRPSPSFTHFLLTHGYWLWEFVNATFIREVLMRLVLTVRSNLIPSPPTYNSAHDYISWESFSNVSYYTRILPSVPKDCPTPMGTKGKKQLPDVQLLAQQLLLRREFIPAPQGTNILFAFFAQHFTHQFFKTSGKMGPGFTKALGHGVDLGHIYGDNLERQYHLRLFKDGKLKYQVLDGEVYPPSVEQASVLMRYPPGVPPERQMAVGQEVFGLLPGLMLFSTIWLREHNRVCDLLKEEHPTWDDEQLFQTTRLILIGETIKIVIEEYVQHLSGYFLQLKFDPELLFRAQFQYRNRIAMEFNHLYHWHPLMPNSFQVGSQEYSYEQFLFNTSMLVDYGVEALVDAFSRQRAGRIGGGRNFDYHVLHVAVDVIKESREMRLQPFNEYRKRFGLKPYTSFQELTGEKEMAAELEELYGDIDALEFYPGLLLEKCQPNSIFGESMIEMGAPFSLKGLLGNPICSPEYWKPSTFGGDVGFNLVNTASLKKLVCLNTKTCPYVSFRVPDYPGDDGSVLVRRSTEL
# assay_protocol: COX-1 assay: calcimycin-stimulated 6-keto-PGF1 production in mouse peritoneal macrophages (RIA)
# stated_conditions: calcimycin 1 μmol/L 1 h, 6-keto-PGF1 by RIA
quantity_measured: IC50

{"compound": "CCCN1CC(c2ccc(S(C)(=O)=O)cc2)=C(c2ccc(Cl)cc2)C1=O [Example 124]", "experimental_target": "Cyclooxygenase-1 (Mus musculus, UniProt P22437)", "IC50": "0.00802 µM"}
{"compound": "Cc1ccc(C2=C(c3ccc(S(C)(=O)=O)cc3)C(=O)N(C)C2)cc1 [Example 105]", "experimental_target": "Cyclooxygenase-1 (Mus musculus, UniProt P22437)", "IC50": "> 10 µM"}
{"compound": "CS(=O)(=O)c1ccc(C2=C(c3ccccc3)CN(C3CCCCC3)C2=O)cc1 [Example 112]", "experimental_target": "Cyclooxygenase-1 (Mus musculus, UniProt P22437)", "IC50": "> 10 µM"}
{"compound": "CCCN1CC(c2cccc(F)c2)=C(c2ccc(S(N)(=O)=O)cc2)C1=O [Example 135]", "experimental_target": "Cyclooxygenase-1 (Mus musculus, UniProt P22437)", "IC50": "> 10 µM"}
{"compound": "CN1CC(c2ccc(S(C)(=O)=O)cc2)=C(c2ccc(Br)cc2)C1=O [Example 119]", "experimental_target": "Cyclooxygenase-1 (Mus musculus, UniProt P22437)", "IC50": "0.0572 µM"}
{"compound": "CCCN1CC(c2cccc(Br)c2)=C(c2ccc(S(N)(=O)=O)cc2)C1=O [Example 132]", "experimental_target": "Cyclooxygenase-1 (Mus musculus, UniProt P22437)", "IC50": "> 10 µM"}

// each compound listed below needs its IC50
1. CCCN1CC(c2ccc(F)cc2)=C(c2ccc(S(C)(=O)=O)cc2)C1=O [Example 106]
2. CS(=O)(=O)c1ccc(C2=C(c3ccccc3)C(=O)OC2)cc1 [Rofecoxib, reference compound]
3. CS(=O)(=O)c1ccc(C2=C(c3ccc(F)cc3)C(=O)N(C3CC3)C2)cc1 [Example 128]
4. CN1CC(c2cccc(Cl)c2)=C(c2ccc(S(C)(=O)=O)cc2)C1=O [Example 109]
5. NS(=O)(=O)c1ccc(C2=C(c3cccc(Cl)c3)CN(C3CC3)C2=O)cc1 [Example 137]
6. CN1CC(c2ccc(S(C)(=O)=O)cc2)=C(c2ccc(F)cc2)C1=O [Example 120]

1. > 10 µM
2. > 10 µM
3. > 10 µM
4. > 10 µM
5. > 10 µM
6. 0.2 µM

Data point: CS(=O)(=O)c1ccc(C2=C(c3ccc(Cl)cc3)CN(C3CC3)C2=O)cc1 [Example 107] ; IC50 = > 10 µM
